Assay: anthelmintic activity against nematode growth – whole organism, log2 fold change (AID 1259336);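 further: growth scored by imaging after five days at 20 °C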
Details: C. elegans growth, anthelmintic screen; stronger effect = lower value
Calls of active or inactive are those of the source. No stated cut-off is given here; in the data, active means log2 fold change growth below about -1.8; inactive means the rest.
quantityKind: log2 fold change growth

INSERT INTO assay_data (molecule, recordedvalue) VALUES
  ('Cc1nn(Cc2ccccc2)c(Cl)c1C(=O)NC1CCCCCC1', '0.0333 (inactive)'),
  ('Cc1cc(C2=NO[C@](c3cc(Cl)c(F)c(Cl)c3)(C(F)(F)F)C2)ccc1C(=O)NCc1ccc2c(c1)C(C)(C)OB2O', '-0.268 (inactive)'),
  ('CO/N=C(/C(=O)OC)c1ccccc1CO/N=C(/C)c1cccc(C(F)(F)F)c1', '-0.187 (inactive)'),
  ('CC(C)(C)C(O)C(Oc1ccc(-c2ccccc2)cc1)n1cncn1 (centres undefined)', '-0.263 (inactive)'),
  ('CO/C=C(\C(=O)OC)c1ccccc1Oc1cc(Oc2ccccc2C#N)ncn1', '-0.352 (inactive)'),
  ('CC1COC(Cn2cncn2)(c2ccc(Oc3ccc(Cl)cc3)cc2Cl)O1 (centres undefined)', '-0.72 (inactive)'),
  ('Cc1nn(C)c(C)c1NS(=O)(=O)c1c(Cl)cc(-c2ccnc(N3CCNCC3)c2)cc1Cl', '-0.0922 (inactive)'),
  ('O=C1O[C@@H](COc2ccon2)CN1c1cc(F)c(C2=CCN(Cc3ccccc3)CC2)c(F)c1', '0.114 (inactive)'),
  ('CCc1nn(C)c(C(=O)NCc2ccc(Oc3ccc(C)cc3)cc2)c1Cl', '-10.9 (active)');
